inhibition values by entry
# Test system: Mast/stem cell growth factor receptor Kit (Homo sapiens), P10721 [V559D]
# Sequence (P10721 whole entry V559D): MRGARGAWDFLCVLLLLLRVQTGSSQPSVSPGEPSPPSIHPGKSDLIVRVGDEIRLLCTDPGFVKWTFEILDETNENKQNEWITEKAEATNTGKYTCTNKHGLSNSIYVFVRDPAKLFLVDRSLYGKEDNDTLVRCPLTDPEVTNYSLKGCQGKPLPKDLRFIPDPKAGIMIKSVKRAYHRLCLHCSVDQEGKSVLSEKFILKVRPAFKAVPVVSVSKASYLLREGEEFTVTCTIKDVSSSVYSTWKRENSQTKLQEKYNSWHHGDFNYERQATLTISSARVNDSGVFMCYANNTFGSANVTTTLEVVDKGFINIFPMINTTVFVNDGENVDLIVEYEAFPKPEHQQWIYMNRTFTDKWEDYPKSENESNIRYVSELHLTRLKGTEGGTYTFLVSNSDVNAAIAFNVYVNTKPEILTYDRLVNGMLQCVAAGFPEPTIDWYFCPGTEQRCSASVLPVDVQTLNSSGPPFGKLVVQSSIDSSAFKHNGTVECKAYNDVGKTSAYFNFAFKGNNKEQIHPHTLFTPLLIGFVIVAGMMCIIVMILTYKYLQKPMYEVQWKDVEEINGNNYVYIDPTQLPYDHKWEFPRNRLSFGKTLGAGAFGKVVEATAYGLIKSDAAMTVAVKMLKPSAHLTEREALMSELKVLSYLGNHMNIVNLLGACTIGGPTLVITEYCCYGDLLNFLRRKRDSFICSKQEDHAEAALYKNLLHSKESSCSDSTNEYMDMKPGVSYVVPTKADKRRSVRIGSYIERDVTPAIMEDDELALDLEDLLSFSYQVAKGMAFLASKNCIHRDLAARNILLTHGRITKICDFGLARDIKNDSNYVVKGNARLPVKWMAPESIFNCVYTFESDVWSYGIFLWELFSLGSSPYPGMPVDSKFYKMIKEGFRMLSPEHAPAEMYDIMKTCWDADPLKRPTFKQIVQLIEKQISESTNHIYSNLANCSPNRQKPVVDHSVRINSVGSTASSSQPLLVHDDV
# protocol-text: Inhibition of KIT V559D mutant at 1 uM
State just the number; it will be interpreted in %.

For orientation, consider the following solved cases.
CN1CCN(c2ccc(-c3cnc4c(c3)N(Cc3c(F)ccc(F)c3Cl)CCN4)cn2)CC1; 69
CN1CCN(c2ccc(-c3cnc4c(c3)N(Cc3cc(Cl)ccc3Cl)CCN4)cn2)CC1; 82
FC(F)(F)c1ccc(Cl)cc1CN1CCNc2ncc(-c3ccnc(N4CCNCC4)c3)cc21; 97

Measured inhibition, O=C(c1ccc(-c2cnc3c(c2)N(Cc2cc(Cl)ccc2C(F)(F)F)CCN3)cc1)N1CCC(N2CCCC2)CC1 : 91.9
